# RUN_DESCRIPTION: Novel Modifiers of Survival Motor Neuron (SMN) Protein: Gene Identification via Genome-wide siRNA Screen;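 also: luminescence tracks full-length SMN protein made from the SMN2 reporter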
# MEASUREMENT_CONTEXT: HEK293T SMN2-luciferase reporter, siRNA knockdown, 72 h; actives lie on both sides
# Procedure: Spinal muscular atrophy (SMA) is the most common neuromuscular autosomal recessive disorder and one of the leading genetic causes of infant death. […] Briefly, 1 pmol of each siRNA was spotted to a well of a 384-well plate (Corning, Corning, NY) and 20 microL of serum-free DMEM containing […] of Lipofectamine RNAiMax (Life Technologies, Carlsbad, CA) was then added to each well. […] Raw luminescence reads were normalized to Ambion(R) Silencer(R) Negative Control #2 siRNA, then log10 transformed. […]
Among all 31,000 sequences or so, about 1,400 (4.5%) were called active.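 The calls were made as follows: active = median seed-adjusted z-score above 1 or below -1; inactive = the rest.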 The full list was thinned out, with actives kept by preference.
Assign a class; possible classes are T (active), F (inactive)

What outcome does the record of this test show for GGGUUUUGCUGACAGCUCATT against ZNF48 ? F

Test call, this sequence: GGAGAGGAUUAUUUCCGCATT against SDR9C7 F

Record lookup: outcome of this test for GCUUUGAUGUGAUUCACCUTT against PRKAG3 ? T

Hey, what did the test say about GCAUGCUGUUAGCCGAUAATT against TOMM70A ? F

Any idea what this test logged for AGAACUUUGUGCACCGUGATT against ZAP70 ? F

Any idea what this test logged for AAACAGACAGAGAUAAGUATT against UBE2D3 ? T

Would you mind telling me which call this test gave CAUUCGCUCUCAUACUGGATT against CTCF ? F

Recorded test outcome, item GACCUUCACCGUUACGUUATT against HDLBP T

Outcome? AGACCGCACUGACAGAGGATT against BAIAP2 F

Kindly provide the recorded test outcome for the following sequence: GGACAAGAACGGAAUUUCATT against SCLY F

Each sequence tested received a call. Report the one for CACUUGAUCUCUUAACCAUTT against 10-Sep . F

Write down the call the test reported for this sequence. Item: CUGGAAUGGUUGUCUGGUATT against SERTAD1 F
